- Tested on: spontaneous breast cancer rat cells (SST-2)
- METHOD_NOTES: Lung metastasis of implanted SST-2 cells in SHR rats (Example 3)
- Assay type: in vivo
- CONDITION: 35 days after implantation, 1 mg/rat subcutaneous injection from day of implantation to day 34
ASSAY_ENDPOINT: Number of Metastasis Colonies (average), Subcutaneous Injection
The answer should be written as a number, with no unit following it.

Below: 5 compounds and their reported Number of Metastasis Colonies (average), Subcutaneous Injection.
[[record]]
compound = "CCCCCCCCCCCC(=O)OC[C@H](O)[C@H]1OC(=O)C(OP(=O)(O)O)=C1O [L-Ascorbic acid 2-phosphate-6-laurate]"
assay_result = 26.8

[[record]]
compound = "CCCCC/C=C\\C/C=C\\C/C=C\\C/C=C\\CCCC(=O)OC[C@H](O)[C@H]1OC(=O)C(OP(=O)(O)O)=C1O"
assay_result = 1.2

[[record]]
compound = "O=C1O[C@H]([C@@H](O)CO)C(O)=C1OP(=O)([O-])[O-].[Mg+2] [Magnesium L-ascorbic acid-2-phosphate]"
assay_result = 86.8

[[record]]
compound = "CCCCCCCCCCCCCCCC(=O)OC[C@H](O)[C@H]1OC(=O)C(O)=C1O [L-Ascorbic acid-6-palmitate]"
assay_result = 83.0

[[record]]
compound = "CCCCCCCC/C=C\\CCCCCCCC(=O)OC[C@H](O)[C@H]1OC(=O)C(OP(=O)(O)O)=C1O [L-Ascorbic acid 2-phosphate-6-oleate]"
assay_result = 2.8


Lab note: next compound to report on.
stdin: Param item = O=C1O[C@H]([C@@H]2COC(c3ccccc3)O2)C(O)=C1O (stereo partly drawn) [L-Ascorbic acid-5,6-O-benzylidene] ; retrieve measured Number of Metastasis Colonies (average), Subcutaneous Injection.
stdout: 84.2

----------
The entries below come with measured Number of Metastasis Colonies (average), Subcutaneous Injection values attached.
- Test system: spontaneous breast cancer rat cells (SST-2)
- METHOD_NOTES: Lung metastasis of implanted SST-2 cells in SHR rats (Example 3)
- Assay type: in vivo
- CONDITION: 35 days after implantation, 1 mg/rat subcutaneous injection from day of implantation to day 34
- Protocol: 1×100,000 spontaneous breast cancer rat cells (SST-2) were subcutaneously implanted into the back of a rat (SHR rat) (5 rats per group) suffering from spontaneous hypertension. After 35 days, the rats were sacrificed, and the lung weight and the number of colonies formed were measured to examine the degree of metastasis of SST-2 to the lung. […]
The answer should be written as a number, with no unit following it.

[[record]]
compound = "O=C1O[C@H]([C@@H](O)CO)C(O)=C1OC1O[C@H](CO)[C@@H](O)[C@H](O)[C@H]1O (stereo partly drawn) [2-O-D-Glucopyranosil-L-ascorbic acid]"
assay_result = 90.6


stdin: Param item = O=C1O[C@H]([C@@H](O)CO)C(O)=C1OS(=O)(=O)[O-].[Na+] [Sodium L-ascorbic acid-2-sulfate] ; retrieve measured Number of Metastasis Colonies (average), Subcutaneous Injection.
stdout: 85.4

stdin: Param item = CC(C)(C)C(=O)OC[C@H](O)[C@H]1OC(=O)C(O)=C1OP(=O)(O)O [6-O-Pivaloyl-L-ascorbic acid-3-phosphate] ; retrieve measured Number of Metastasis Colonies (average), Subcutaneous Injection.
stdout: 86.2

----------
- Test system: bovine aortic endothelial BAE-2 cells
- METHOD_NOTES: Intracellular ascorbic acid cumulative amount in BAE-2 cells (Example 2)
- Format: cell-based
- CONDITION: 5 μM in culturing medium, cultured 20 hours
Flag rule - Intracellular Cumulative Amount less than 0.004 Pmole/cell flags y; the remaining entries get n.

stdin: Determine if CCCCCCCCCCCCCCCC(=O)OC[C@H](O)[C@H]1OC(=O)C(OP(=O)(O)O)=C1O [L-Ascorbic acid 2-phosphate-6-palmitate] shows Intracellular Cumulative Amount strictly lower than 0.004 Pmole/cell.
stdout: n

stdin: Determine if O=C1O[C@H]([C@@H](O)CO)C(O)=C1OC1O[C@H](CO)[C@@H](O)[C@H](O)[C@H]1O (stereo partly drawn) [2-O-D-Glucopyranosil-L-ascorbic acid] shows Intracellular Cumulative Amount strictly lower than 0.004 Pmole/cell.
stdout: y

stdin: Determine if CCCCCCCC/C=C\CCCCCCCC(=O)OC[C@H](O)[C@H]1OC(=O)C(OP(=O)(O)O)=C1O [L-Ascorbic acid 2-phosphate-6-oleate] shows Intracellular Cumulative Amount strictly lower than 0.004 Pmole/cell.
stdout: n

stdin: Determine if CC(CCC(C(=O)OC1=C(O)C(=O)O[C@@H]1[C@@H]1COC(c2ccccc2)O1)C(C)CC(C)(C)C)CC(C)(C)C (stereo partly shown) shows Intracellular Cumulative Amount strictly lower than 0.004 Pmole/cell.
stdout: y

stdin: Determine if O=C1O[C@H]([C@@H](O)COC(=O)c2ccccc2)C(O)=C1OP(=O)(O)O [L-Ascorbic acid 2-phosphate-6-benzoate] shows Intracellular Cumulative Amount strictly lower than 0.004 Pmole/cell.
stdout: y

stdin: Determine if CCCCCCCCCCCC(=O)OC[C@H](O)[C@H]1OC(=O)C(OP(=O)(O)O)=C1O [L-Ascorbic acid 2-phosphate-6-laurate] shows Intracellular Cumulative Amount strictly lower than 0.004 Pmole/cell.
stdout: n

stdin: Determine if O=C1OC(C2COC(c3cccc([N+](=O)[O-])c3)O2)C([O-])=C1O.[Na+] (stereo not shown) shows Intracellular Cumulative Amount strictly lower than 0.004 Pmole/cell.
stdout: y

stdin: Determine if O=C1O[C@H]([C@@H]2COC(c3ccccc3)O2)C(O)=C1O (stereo partly drawn) [L-Ascorbic acid-5,6-O-benzylidene] shows Intracellular Cumulative Amount strictly lower than 0.004 Pmole/cell.
stdout: y

stdin: Determine if `CCCCC/C=C\C/C=C\C/C=C\C/C=C\CCCC(=O)OC[C@H](O)[C@H]1OC(=O)C(OP(=O)(O)O)=C1O` shows Intracellular Cumulative Amount strictly lower than 0.004 Pmole/cell.
stdout: n

stdin: Determine if CCCCCCCCCCCCCCCCCC(=O)OC[C@H](O)[C@H]1OC(=O)C(OP(=O)(O)O)=C1O [L-Ascorbic acid 2-phosphate-6-stearate] shows Intracellular Cumulative Amount strictly lower than 0.004 Pmole/cell.
stdout: y

----------
- Test system: spontaneous breast cancer rat cells (SST-2)
- METHOD_NOTES: Lung metastasis of implanted SST-2 cells in SHR rats (Example 3)
- Type: in vivo
- CONDITION: 35 days after implantation, 1 mg/rat subcutaneous injection from day of implantation to day 34
The entries below come with measured Number of Metastasis Colonies (average), Subcutaneous Injection values attached.
The answer should be written as a number, with no unit following it.

[[record]]
molecule = "CCCCCCCCCCCCCCCCCC(=O)OC[C@H](O)[C@H]1OC(=O)C(OP(=O)(O)O)=C1O [L-Ascorbic acid 2-phosphate-6-stearate]"
assay_result = 8.2

[[record]]
molecule = "O=C1O[C@H]([C@@H](O)CO)C(O)=C1O"
assay_result = 88.8

[[record]]
molecule = "CCCCCCCCCCCCCCCC(=O)OC[C@H](O)[C@H]1OC(=O)C(OC(=O)CCCCCCCCCCCCCCC)=C1O [L-Ascorbic acid-2,6-dipalmitate]"
assay_result = 86.6

[[record]]
molecule = "CC(CCC(C(=O)OC1=C(O)C(=O)O[C@@H]1[C@@H]1COC(c2ccccc2)O1)C(C)CC(C)(C)C)CC(C)(C)C (stereo partly shown)"
assay_result = 89.6

[[record]]
molecule = "O=C1O[C@H]([C@@H](O)COC(=O)c2ccccc2)C(O)=C1OP(=O)(O)O [L-Ascorbic acid 2-phosphate-6-benzoate]"
assay_result = 64.4

[[record]]
molecule = "CCCCCCCCCCCCCCCC(=O)OC[C@H](O)[C@H]1OC(=O)C(OP(=O)(O)O)=C1O [L-Ascorbic acid 2-phosphate-6-palmitate]"
assay_result = 2.4


Lab note: next molecule to report on.
stdin: Please provide the recorded Number of Metastasis Colonies (average), Subcutaneous Injection for O=C1OC(C2COC(c3cccc([N+](=O)[O-])c3)O2)C([O-])=C1O.[Na+] (stereo not shown) , tested on spontaneous breast cancer rat cells (SST-2).
stdout: 84.2
